- system-name: T1, biotinylated human CTLA-4 (Example 3 FACS competition) (human, UniProt P16410 36-161, limits assumed, biotinylated (sites not given))
- T1 sequence (looked up): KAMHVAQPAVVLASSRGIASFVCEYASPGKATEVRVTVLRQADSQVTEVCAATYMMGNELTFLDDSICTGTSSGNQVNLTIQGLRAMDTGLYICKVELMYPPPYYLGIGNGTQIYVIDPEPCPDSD
- assay: competition FACS: antibody mixed with biotinylated human CTLA-4, added to CD86-expressing cells (panel title W316-CHO-K1.hPro1.L2), bound CTLA-4 detected with streptavidin-PE [B]
Give IC50 (read off the curve) for every item shown.

Give its IC50 (read off the curve) value. Item: W3162-1.101.2 xAb.IgG1 (antibody, V domains shown, Chimeric: rat variable regions fused with constant region of human antibody (label xAb.IgG1)) VH: EEQLVESGGGLVQPGKSLKLSCSASGFTFRSSAMHWIRQPPGKGLDWVAFISSGGDTAYADAVKGRFIVSRDNAENTLFLQLNSLKSEDTAIYYCVRMERIPTWGQGVMVTVSS VL: DIVLTQSPVLAVSLGQRATISCRASQSVSISSINLIHWYQQRPGQQPKLLIYRTSNLASGIPARFSGSGSGTDFTLSIDPVQADDVADYYCQQSRESPLTFGSGTKLEIK
~20 nM

Entry W3162-1.154.8 xAb.IgG1 (antibody, V domains shown, Chimeric: rat variable regions fused with constant region of human antibody (label xAb.IgG1)) VH: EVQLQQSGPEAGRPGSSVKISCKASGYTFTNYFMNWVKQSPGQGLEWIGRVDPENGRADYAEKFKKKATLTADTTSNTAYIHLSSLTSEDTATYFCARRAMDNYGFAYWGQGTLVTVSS VL: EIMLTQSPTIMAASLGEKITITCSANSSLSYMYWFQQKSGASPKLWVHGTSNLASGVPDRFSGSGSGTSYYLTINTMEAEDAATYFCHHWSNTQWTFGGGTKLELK has what IC50 (read off the curve)?
~0.08 nM

Consider the binder shown here: W3162-1.145.10 xAb.IgG1 (antibody, V domains shown, Chimeric: rat variable regions fused with constant region of human antibody (label xAb.IgG1)) VH: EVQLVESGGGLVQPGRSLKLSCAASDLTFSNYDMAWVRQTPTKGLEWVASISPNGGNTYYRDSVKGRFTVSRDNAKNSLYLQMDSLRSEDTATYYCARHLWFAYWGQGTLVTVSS VL: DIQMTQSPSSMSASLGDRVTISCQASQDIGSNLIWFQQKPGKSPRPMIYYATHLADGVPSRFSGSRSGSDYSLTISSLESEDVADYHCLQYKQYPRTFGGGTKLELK What is its recorded IC50 (read off the curve)?
~0.3 nM

Quick one: IC50 (read off the curve) for W3162-1.146.19 xAb.IgG1 (antibody, V domains shown, Chimeric: rat variable regions fused with constant region of human antibody (label xAb.IgG1)) VH: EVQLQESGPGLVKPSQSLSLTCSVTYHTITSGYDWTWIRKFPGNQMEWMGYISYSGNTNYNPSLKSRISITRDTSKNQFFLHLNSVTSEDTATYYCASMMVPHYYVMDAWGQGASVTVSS VL: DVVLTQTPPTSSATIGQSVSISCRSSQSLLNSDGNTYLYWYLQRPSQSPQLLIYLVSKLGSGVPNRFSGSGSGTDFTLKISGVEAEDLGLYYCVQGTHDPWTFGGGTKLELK ?
~1 nM

Taken from patent US20200277377A1.
